# System Name: UniProt P48775
# Sequence (P48775 whole entry): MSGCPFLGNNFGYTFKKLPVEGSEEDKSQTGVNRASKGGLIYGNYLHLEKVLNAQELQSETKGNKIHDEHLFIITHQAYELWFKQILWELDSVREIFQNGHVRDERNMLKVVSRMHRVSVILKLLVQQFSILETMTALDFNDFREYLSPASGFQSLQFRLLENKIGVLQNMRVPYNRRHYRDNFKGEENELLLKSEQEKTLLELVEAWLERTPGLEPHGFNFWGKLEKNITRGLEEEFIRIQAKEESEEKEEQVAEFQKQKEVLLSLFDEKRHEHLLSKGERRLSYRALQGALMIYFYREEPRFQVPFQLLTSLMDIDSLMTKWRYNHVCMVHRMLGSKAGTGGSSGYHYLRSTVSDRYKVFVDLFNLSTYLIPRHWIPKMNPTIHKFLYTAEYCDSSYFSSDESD
# Protocol Details: Inhibition of TDO in HEK cells
pIC50: −log10 of the molar value.
We use 5 as the dividing line for pIC50: on or above the line is MET, below is NOT MET.

input: Can `CC(C)(C(=O)Nc1ccc(Cl)cc1)N1CCC2(CC1)COc1cc(C(F)(F)F)ccc12` be said to have pIC50 at or above 5?
output: NOT MET

input: Try this compound too: `O=C(CN1CCC2(CC1)COc1cc(C(F)(F)F)ccc12)Nc1ccc(Cl)cc1`
output: NOT MET

input: Now consider CC(C(=O)Nc1ccc(Cl)cc1)N1CCC2(CCc3ccccc32)CC1 (racemic) .
output: NOT MET

input: Another compound to check: O=C(Nc1ccc(Cl)cc1)C(CC1CC1)N1CCC2(CC1)COc1cc(C(F)(F)F)ccc12 (centres undefined)
output: NOT MET

input: Also check `C[C@H](C(=O)Nc1ccc(Cl)cc1)[C@H]1CC[C@]2(CC1)COc1nc(C(F)(F)F)ccc12`
output: MET
